Reference for the values: the supplement of paper PMC9112550

# System: Escherichia coli TOP10;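 also: peptides expressed intracellularly from a pBAD plasmid library in pooled LB shake-flask culture, induced with 0.3% L-arabinose, DNA abundance read by NGS, three biological replicates, DESeq2 with apeglm shrinkage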
# ASSAY_TEXT: shrunken log2 fold change of peptide-encoding DNA abundance (4.5 h post-induction vs induction); higher = less antimicrobial activity (less host growth inhibition)
# RUN_CONDITIONS: time post-induction: 4.5 h; library: site-saturation at positions 5, 18, 19, 20
MEASUREMENT_KIND: shrunken log2 fold change

1) RRIRRRPPRLPRPRPRPKLFPRP
0.37
2) RRIRMRPPRLPRPRPRPDNIPRP
-0.184
3) RRIRLRPPRLPRPRPRPTDCPRP
-0.197
4) RRIRKRPPRLPRPRPRPTWPPRP
0.766
5) RRIRYRPPRLPRPRPRPQWVPRP
-0.0081
6) RRIRQRPPRLPRPRPRPECKPRP
-0.0182
7) RRIRRRPPRLPRPRPRPNNPPRP
0.0225
8) RRIRNRPPRLPRPRPRPWWVPRP
-0.226
